Provenance of the data: paper PMC11090339

Would you mind telling me the reported IC50 of each entry?
The reply should be a number in µM, with the unit left off.

The reported MtDHFR (Mycobacterium tuberculosis) IC50 of O=C(COc1ccc(Cl)cc1)NNC(=O)c1ccc(-n2cccc2)cc1 is 122

The reported MtDHFR (Mycobacterium tuberculosis) IC50 of O=C(COc1ccccc1O)NNC(=O)c1ccc(-n2cccc2)cc1 is 25

The reported MtDHFR (Mycobacterium tuberculosis) IC50 of Cc1ccc(C)n1-c1ccc(C(=O)NNC(=O)COc2ccccc2)cc1 is 98

The reported MtDHFR (Mycobacterium tuberculosis) IC50 of Cc1cc(C)cc(OCC(=O)NNC(=O)c2ccc(-n3cccc3)cc2)c1 is 19

The reported MtDHFR (Mycobacterium tuberculosis) IC50 of Cc1cccc(OCC(=O)NNC(=O)c2ccc(-n3c(C)ccc3C)cc2)c1 is 62

The reported MtDHFR (Mycobacterium tuberculosis) IC50 of Cc1ccc(OCC(=O)NNC(=O)c2ccc(-n3cccc3)cc2)c(C)c1 is 32

The reported MtDHFR (Mycobacterium tuberculosis) IC50 of Cc1ccc(OCC(=O)NNC(=O)c2ccc(-n3c(C)ccc3C)cc2)c(C)c1 is 56

The reported MtDHFR (Mycobacterium tuberculosis) IC50 of O=C(COc1cc(O)cc(O)c1)NNC(=O)c1ccc(-n2cccc2)cc1 is 20
